Target: T1, MAGE-A1 278-286 with alanine at position 6 peptide on HLA-A*02:01 (human)
T1 peptide: KVLEYAIKV
Assay: cytokine release

Binder	binding result
hT27 TCR m3 (beta chain T63I) (TCR, V domains shown) Valpha: GEDVEQSLFLSVREGDSSVINCTYTDSSSTYLYWYKQEPGAGLQLLTYIFSNMDMKQDQRLTVLLNKKDKHLSLRIADTQTGDSAIYFCAGSGGGTDKLIFGTGTRLQVFP Vbeta: GAVVSQHPSWVICKSGTSVKIECRSLDFQATTMFWYRQFPKQSLMLMAISNEGSKATYEQGVEKDKFLINHASLTLSTLTVTSAHPEDSSFYICSAREPGQGPYEQYFGPGTRLTVT	recognises
hT27 TCR m8 (alpha chain G125V) (TCR, V domains shown) Valpha: GEDVEQSLFLSVREGDSSVINCTYTDSSSTYLYWYKQEPGAGLQLLTYIFSNMDMKQDQRLTVLLNKKDKHLSLRIADTQTGDSAIYFCAGSGGGTDKLIFGTVTRLQVFP Vbeta: GAVVSQHPSWVICKSGTSVKIECRSLDFQATTMFWYRQFPKQSLMLMATSNEGSKATYEQGVEKDKFLINHASLTLSTLTVTSAHPEDSSFYICSAREPGQGPYEQYFGPGTRLTVT	recognises
hT27 TCR m2 (beta chain S109N) (TCR, V domains shown) Valpha: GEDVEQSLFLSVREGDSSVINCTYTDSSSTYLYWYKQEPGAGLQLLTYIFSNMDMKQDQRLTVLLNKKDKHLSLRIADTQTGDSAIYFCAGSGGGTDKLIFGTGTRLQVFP Vbeta: GAVVSQHPSWVICKSGTSVKIECRSLDFQATTMFWYRQFPKQSLMLMATSNEGSKATYEQGVEKDKFLINHASLTLSTLTVTSAHPEDSSFYICNAREPGQGPYEQYFGPGTRLTVT	recognises

Where do the numbers come from? From patent US20230242611A1.
